measurementDescription: soluble on expression in E. coli; label from the status in PepcDB or PDB records
assayReadout: soluble on expression in E. coli

{"inputSequence": "MSHLNYNHLYYFWMVCKQGSVTKAADALFLTPQTVTGQIKALEDRLDGKLTKRNGRSIEPTELGQLVFKYADRMFGLSYEMLDIVNYSQRSNLLFDVGVADALSKRLVSKILLTSVPGDNRIHLRCFESTHEMLLEQLAQHKLDMILSDCPVDSSQSPGLFSKKLGESRMSFFSFGDVDFAPFPAVLQSKKLLVPGSRTAMGRKVRQWFDRQGLQPHILGEFDDSALMKAFAIYHSDAVFMAPSFYVSEVDAESSLKLIGHVDEIKEEYYVIFAERMIQHPAVKNVCDADFTNLFL", "assayReadout": "soluble on expression in E. coli", "dataValue": "not soluble"}
{"inputSequence": "MGSDKIHHHHHHMSIAPFLEAAGWAEATATPLAGDASSRRYTRLSRGAETAVLMQAPVATKADHASFDAFRKIGAHLRGQNLSAPKEYAADPTNGLILMEDLGDQTLARLLKDDAQTAQIAYNATANLLPHLKVHAPPHLAAPDARAMAQMVALTFDQLPDSAILRDTLLEALAEALTTHAPGAPTLSLRDVHAENLLWLPDRDGPARVGLLDFQDALLLPEGYDLASLLDDPRREVPEVWRADLIAAHSAPTRIAVLSLQRNLRILGIFRRLSTTLGKPAYGAFLPRTRTLIARAASDLPPMLAPVTELLDRTAHWTAP", "assayReadout": "soluble on expression in E. coli", "dataValue": "not soluble"}
{"inputSequence": "MSLAPAEWVALNYVPFAERSLEVVVDLYQKTACHKAVVNEKVLQNIIKTLRVPLSLKYSCPSESTWKLAVSSLLRVLSIGLPVARQHASSGKFDSMWPELANTFEDFLFTKSIPPDNLSIQEFQRNENIDVEVVQLISNEILPYANFIPKEFVGQIMTMLNKGSIHSQSSSFTEAEIDIRLREEFSKMCFETLLQFSFSNKVTTPQEGYISRMALSVLLKRSQDVLHRYIEDERLSGKCPLPRQQVTEIIFVLKAVSTLIDSLKKTQPENVDGNTWAQVIALYPTLVECITCSSSEVCSALKEALVPFKDFMQPPASRVQNGEEGHHHHHH", "assayReadout": "soluble on expression in E. coli", "dataValue": "not soluble"}
